Provide the recorded koff for the entries that follow.
- Target system: T1, human 4-1BB-His protein (human, UniProt Q07011 24-186)
- T1 construct: Recombinant His-tagged protein; also called human 4-1BB-his tag; recombinant 4-1BB protein; not shown: His tag
- Measurement description: SPR, Biacore T200, antibody captured on Protein A chip, human 4-1BB-His as analyte
Answers are plain numbers, in s⁻¹.

| Binder | Quantitative result |
| --- | --- |
| B210-V3 humanized antibody (VHH, Humanized VHH; also called B210 VHH-V3) VHH: EVQLVESGGGLVQPGGSLRLSCAASGLTFSYYAIGWFRQAPGKEREGVSCISSSGRSTNYADSVKGRFTISRDNSKNTLYLQMNSLRAEDTAVYYCATDTTTRCPIWSNYVESDYWGQGTLVTVSS | 0.0408 |

Hi! Can you tell me koff for each of these binders?
1. B31-V3 humanized antibody (VHH, Humanized VHH captured on a Protein A chip; also called B31 VHH-V3) VHH: QVQLVESGGGLVQPGGSLRLSCAASGDIFSIMFWYRQAPGKQREYVAHITSNGRTNYADSVTGRFTISRDNNKNTLYLQMNSLRAEDTAVYYCAADDATNTRTYWGQGTLVTVSS
2. B31-V5 humanized antibody (VHH, Humanized VHH captured on a Protein A chip; also called B31 VHH-V5) VHH: QVQLVESGGGLVQPGGSLRLSCAASGDIFSIMFWYRQPQGKQREYVAHITSNGRTNYADSVTGRFTISRDNNKNTLYLQMDSLRAEDTAVYYCAADDATNTRTYWGQGTLVTVSS

## Output
1. 0.00716
2. 0.00646
